Biological target: T1, recombinant Q586B2 protein (Tb927.6.4140), produced in E. coli WK6
T1 chain: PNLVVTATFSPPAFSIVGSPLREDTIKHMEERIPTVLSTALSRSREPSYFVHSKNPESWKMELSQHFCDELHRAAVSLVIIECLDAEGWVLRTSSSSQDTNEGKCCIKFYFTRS
Test: ELISA
endpoint: pKd
pKd field: float, defined as -log10 of concentration (mol/L).

Here's what some known entries look like.
Nb53 (VHH) VHH: QVQLQESGGGSVQAGGSLRLSCSASGYTYSSHCTAWFRQAPGKEREALAAINSRSGTTYYADSVKGRFTISQDNTKNTAYLQMNSLKPEDTATYFCAALSFGCTGPLASLGQGTQVTVSS    7.34
Nb39 (VHH) VHH: QVQLQESGGGLVQPGGSLRLSCTASGSIFSGYAMGWYRQAPGKQRELVAGITSGGSTIYAGSVKGRFTISRDNAKNTVYLQMNSLKPEDTAVYYCKNGTYYSARDYWGQGTQVTVSS    7.30
Nb41 (VHH, Llama nanobody purified by IMAC and SEC; It was HA-tagged in flow cytometry; also called anti-Q586B2 Nb) VHH: QVQLQESGGGLVQAGGSLRLSCAASGRTFSSYAMGWFRQAPGKEREFIALISWIGGSTAYADSVKGRFTISRDNAKNTLYLQMNSLKPEDTAVYYCATDRIGRHRGPGTQVTVSS    7.84

Given item Nb58 (VHH, Llama nanobody purified by IMAC and SEC; It was HA-tagged in flow cytometry; also called anti-Q586B2 Nb) VHH: QVQLQESGGGLVQPGGSLRLSCAASGRSISSIYAMGWYRQAPGKQRELVARLTSGGSSNYADSVKGRFTITRDNAQNTVYLQMNSLKPEDTAVYYCNAEPSRWWLDDDYWGQGTQVTVSS , the value recorded as its pKd is 7.44
